For each entry below, report its % of biting (±SE) (N = 3) value.
test system: Anopheles stephensi; assay: K&D module behavioral bioassay (topical repellency, biting); assay type: in vivo; details: 100 μg/cm^2
Lab book: enter the figure in a %, no units written.

### Prompt Specify measured % of biting (±SE) (N = 3) for C=C(C)[C@@H]1CC[C@H](C)C2=C(C1)[C@@H](C)CC2 [α-Guaiene, α-guaiene] .
### Response 0

### Prompt Give me measured % of biting (±SE) (N = 3), please, for this compound: C=C1CC/C=C(/C)CC[C@@H]2[C@@H]1CC2(C)C [Isocaryophyllene, isocaryophyllene]
### Response 7

### Prompt Entry C=C(C)[C@@H]1CCC(C)=C2CC[C@H](C)[C@@H]2C1 [α-Bulnesene, α-bulnesene] needs its % of biting (±SE) (N = 3) filled in; supply it.
### Response 0

====

test system: female antennae of sand fly Phlebotomus papatasi and mosquitoes Aedes aegypti, Anopheles gambiae, Anopheles stephensi; test: GC-EAD responses of sand fly and three mosquitoes to synthetic mixtures; conditions: about 100 ng of each compound, on one or more of the sand fly or the mosquitoes, FIGS. 9 and 10

molecule | GC-EAD antennal activity
C=C1CC/C=C(\C)CC[C@@H]2[C@@H]1CC2(C)C | antennally active
CC1(C)C2=CCCC(C)(C)C23CCC1C3 (single isomer, unassigned; (-)) [(−)-isolongifolene, 2,2,7,7-tetramethyltricyclo undec-5-ene] | antennally active

====

Tested on: Anopheles stephensi
Assay: Y-tube olfactometer behavioral bioassay (spatial repellency)
Assay type: in vivo
Conditions: Anopheles stephensi females; release rate per chemical (1-60 mg/day; β-Caryophyllene 10 mg/day); 10 min
Experimental: Aegypti and An. stephensi, and one species of sand fly, P. papatasi. Both the mosquitoes and the sand flies used in the study were from colonies maintained at the Walter Reed Army Institute of Research, Department of Entomology, Silver Spring, Md. […] After 10 min., the valve was closed and the numbers of mosquitoes or sand flies in each arm (including the bottom tube) were counted. […]
Labelling field: enter yes if recorded Number of mosquitoes in each arm: Repellent is less than 10. Enter no if it equals or exceeds that cut-off.

### Prompt Hello, I'm reviewing records and need to know if Number of mosquitoes in each arm: Repellent of C=C1CC[C@H]2O[C@]2(C)CC[C@@H]2[C@@H]1CC2(C)C [β-Caryophyllene Oxide, β-Caryophyllene oxide] is below 10. Could you check?
### Response no

### Prompt Item C=C(C)[C@@H]1CC[C@H](C)C2=C(C1)[C@@H](C)CC2 [α-Guaiene, α-guaiene] : Number of mosquitoes in each arm: Repellent beneath 10, strictly?
### Response yes

### Prompt Is Number of mosquitoes in each arm: Repellent strictly under 10 for the entry C=C1C2CCC3[C@H]2C(C)(C)CCC[C@]13C (single isomer, unassigned; (+)) [(+)-Longifolene] ?
### Response yes

### Prompt # TODO verify Number of mosquitoes in each arm: Repellent < 10 strictly for this molecule: C=C1CC/C=C(\C)CC[C@@H]2[C@@H]1CC2(C)C [β-Caryophyllene, β-caryophyllene]
### Response no

### Prompt State whether 10 exceeds Number of mosquitoes in each arm: Repellent recorded for C=C(C)[C@@H]1CCC(C)=C2CC[C@H](C)[C@@H]2C1 [α-Bulnesene, α-bulnesene] .
### Response no

### Prompt Here's an entry: C=C1CC/C=C(/C)CC[C@@H]2[C@@H]1CC2(C)C [Isocaryophyllene, isocaryophyllene] . Is its Number of mosquitoes in each arm: Repellent below 10?
### Response yes

====

So I've got a bunch of compounds here, and I need their % of biting (±SE) (N = 3) values.
tested on: Anopheles stephensi; experiment: K&D module behavioral bioassay (topical repellency, biting); type: in vivo; conditions: 10 μg/cm^2, DEET values are the positive control run with the chemical

### Prompt Retrieve % of biting (±SE) (N = 3) measured for C/C1=C\CCC(=O)[C@H]2CC(C)(C)[C@@H]2CC1 and print it.
### Response 20 ± 12ab %

### Prompt Query % of biting (±SE) (N = 3) for C=C1CC/C=C(/C)CC[C@@H]2[C@@H]1CC2(C)C
### Response 33 ± 13b %

### Prompt Report % of biting (±SE) (N = 3), nothing else, for this compound: C=C1CC[C@H]2O[C@]2(C)CC[C@@H]2[C@@H]1CC2(C)C [β-Caryophyllene Oxide, β-Caryophyllene oxide]
### Response 20 ± 12ab %

### Prompt Provide measured % of biting (±SE) (N = 3) value, entry: C=C1CC/C=C(\C)CC[C@@H]2[C@@H]1CC2(C)C
### Response 47 ± 18bc %
